Would you kindly list Post-emergence action against SETVI in % for each of these molecules?
System: Setaria viridis (SETVI)
Experiment: Post-emergence herbicidal action against SETVI
Format: in vivo
Conditions: dosage 320 g/ha
Experimental: Seeds of monocotyledonous and dicotyledonous weeds and crop plants are placed in sandy loam in plastic or organic planting pots, covered with soil and cultivated in a greenhouse under controlled growth conditions. 2 to 3 weeks after sowing, the test plants are treated at the one-leaf stage. […]
One number for each entry, in %.

See these solved cases before continuing.
molecule	assayed-target	Post-emergence action against SETVI in % / %
C[C@@H](Oc1nn(-c2ncccc2F)c(-c2cncc(F)c2)c1Cl)C(=O)O [Example I-165]	Setaria viridis (SETVI)	90
COCCOC(=O)COc1nn(-c2cccc(C)n2)c(-c2ccc(F)nc2)c1Cl [Example I-279]	Setaria viridis (SETVI)	80
COC(=O)CSc1nn(-c2ccccn2)c(-c2cncc(F)c2)c1Br [Example I-151]	Setaria viridis (SETVI)	90

Entry COC(=O)CNC(=O)[C@@H](C)Oc1nn(-c2ccccn2)c(-c2cncc(F)c2)c1Cl [Example I-185] , Post-emergence action against SETVI in % reported as 80

* * *

tested on: Pharbitis purpurea (PHBPU); test: Post-emergence herbicidal action against PHBPU; format: in vivo; details: dosage 80 g/ha
Hi there, I'd appreciate the recorded Post-emergence action against PHBPU in % for every entry that follows.
Answers are plain numbers, in %.

Would you please look over these solved cases?
compound-structure-string	assayed-target	result-unit	Post-emergence action against PHBPU in %
O=C(O)COc1nn(-c2ncccc2F)c(-c2cncc(F)c2)c1Cl	Pharbitis purpurea (PHBPU)	%	80
CCOC(=O)COc1nn(-c2cccc(C)n2)c(-c2ccc(F)nc2)c1Cl	Pharbitis purpurea (PHBPU)	%	90

Each molecule below has a reported value. Please supply its Post-emergence action against PHBPU in %.
1. O=C(COc1nn(-c2ncccc2F)c(-c2ccc(F)nc2)c1Br)OCc1ccccn1
2. COC(=O)[C@@H](C)Oc1nn(-c2ncccc2F)c(-c2cncc(F)c2)c1C1CC1
3. COC(=O)[C@H](C)COC(=O)COc1nn(-c2ccnc(Cl)c2)c(-c2ccc(F)nc2)c1Br
4. COC(=O)CCOC(=O)COc1nn(-c2ccccn2)c(-c2cncc(F)c2)c1Cl
5. C[C@@H](Oc1nn(-c2ncccc2F)c(-c2cncc(F)c2)c1Cl)C(=O)O

Response:
80
90
80
90
80

* * *

tested on: Oryza sativa (ORYSA); type: in vivo; settings: crop plant compatibility, 320 g/ha, effect in comparison to untreated controls
assay-endpoint: Post-emergence action against ORYSA in %
Just so you know, I need the unit written after the number.

Past entries and their recorded results:
compound	assay-endpoint	value-reported
C[C@@H](Oc1nn(-c2ccccn2)c(-c2ccc(Cl)nc2)c1Cl)C(=O)O [Example I-238]	Post-emergence action against ORYSA in %	10%
COC(=O)CCOC(=O)COc1nn(-c2ccccn2)c(-c2ccc(Cl)nc2)c1Cl [Example I-243]	Post-emergence action against ORYSA in %	10%
COC(=O)CNC(=O)[C@@H](C)Oc1nn(-c2ccccn2)c(-c2cncc(F)c2)c1Br [Example I-187]	Post-emergence action against ORYSA in %	20%

Fill in Post-emergence action against ORYSA in % for each of the 3 compounds listed.
1. COC(=O)CNC(=O)COc1nn(-c2ncccc2C(F)(F)F)c(-c2cncc(F)c2)c1Br [Example I-205]
2. O=C(O)COc1nn(-c2ncccc2C(F)(F)F)c(-c2cncc(F)c2)c1I [Example I-186]
3. O=C(O)C1CCN(C(=O)COc2nn(-c3ccccn3)c(-c3cncc(F)c3)c2Br)C1 (racemic) [Example I-63]

Response:
1. 10%
2. 20%
3. 10%

* * *

tested on: Triticum aestivum (TRZAS); format: in vivo; conditions: crop plant compatibility, 20 g/ha, effect vs untreated controls
assay-endpoint: Post-emergence action against TRZAS in %

Examples from the recorded data:
molecule	Post-emergence action against TRZAS in %
O=C(O)COc1nn(-c2ccccn2)c(-c2ccc(F)nc2)c1C(F)(F)F [Example I-99]	20%
CCOC(=O)C1CCN(C(=O)COc2nn(-c3ccccn3)c(-c3ccc(F)nc3)c2Br)CC1 [Example I-112]	0%
CS(=O)(=O)NC(=O)COc1nn(-c2ncccc2F)c(-c2ccc(F)nc2)c1Br [Example I-44]	20%
COC(=O)CNC(=O)COc1nn(-c2ccccn2)c(-c2ccc(F)nc2)c1C1CC1 [Example I-70]	0%
COC(=O)CCOC(=O)COc1nn(-c2ccccn2)c(-c2cncc(F)c2)c1C1CC1 [Example I-71]	10%
O=C(COc1nn(-c2ccnc(Cl)c2)c(-c2ccc(F)nc2)c1Br)NS(=O)(=O)CC(F)(F)F [III-20]	0%

Could I get Post-emergence action against TRZAS in % for every one of these entries?
1. CCOC(=O)COc1nn(-c2ncccc2F)c(-c2ccc(F)nc2)c1Br [Example I-51]
2. COC(=O)COc1nn(-c2ncccc2C)c(-c2cncc(F)c2)c1Br [Example I-179]

Response:
1. 20%
2. 0%

Give Post-emergence action against TRZAS in % for each of the items listed below.
1. O=C(O)COc1nn(-c2ncccc2F)c(-c2ccc(F)nc2)c1Br [Example I-17]
2. COC(=O)[C@H](C)NC(=O)COc1nn(-c2ccnc(Cl)c2)c(-c2ccc(F)nc2)c1Br [III-18]
3. COC(=O)CNC(=O)COc1nn(-c2cccnc2C)c(-c2cncc(F)c2)c1Br [II-37]
4. COC(=O)CCOC(=O)COc1nn(-c2ccccn2)c(-c2ccc(F)nc2)c1C1CC1(F)F (stereo not shown) [Example I-261]
5. COC(=O)C(C)COC(=O)COc1nn(-c2ncccc2C(F)(F)F)c(-c2ccc(F)nc2)c1C1CC1(F)F (stereo not shown) [Example I-268]
6. COC(=O)COc1nn(-c2ncccc2F)c(-c2cncc(F)c2)c1Br [Example I-16]
7. CCOC(=O)COc1nn(-c2ncccc2F)c(-c2ccnc(F)c2)c1I [Example I-137]
8. CCOC(=O)COc1nn(-c2ccncc2F)c(-c2ccc(F)nc2)c1Br [III-29]

Response:
10%
0%
0%
0%
0%
20%
20%
20%

Hi! Can you tell me Post-emergence action against TRZAS in % for each of these molecules?
1. CCOC(=O)COc1nn(-c2ncccc2F)c(-c2ccc(F)nc2)c1I [Example I-55]
2. CCOC(=O)COc1nn(-c2ncccc2F)c(-c2ccnc(F)c2)c1Br [Example I-136]
3. COC(=O)[C@H](C)COC(=O)COc1nn(-c2ccccn2)c(-c2cncc(F)c2)c1Cl [Example I-74]
4. O=C(COc1nn(-c2ncccc2F)c(-c2ccc(F)nc2)c1C1CC1)OCc1ccccc1 [Example I-287]
5. CCOC(=O)COc1nn(-c2ccccn2)c(-c2ccc(F)nc2)c1C1CC1(F)F (stereo not shown) [Example I-387]
6. Cc1ncccc1-n1nc(OCC(=O)OCC2CCCO2)c(Br)c1-c1cncc(F)c1 (stereo not shown) [II-43]
7. COC(=O)CN(C)C(=O)COc1nn(-c2ccnc(Cl)c2)c(-c2ccc(F)nc2)c1Br [III-21]

Response:
0%
10%
0%
20%
0%
10%
0%

* * *

tested on: Viola tricolor (VIOTR); test: Post-emergence herbicidal action against VIOTR; type: in vivo; conditions: 320 g/ha
assay-endpoint: Post-emergence action against VIOTR in % (%)
Numbers only, in %.

Worked set:
molecule	result-unit	Post-emergence action against VIOTR in %
COC(=O)C(C)OC(=O)C(C)Oc1nn(-c2ccccn2)c(-c2ccc(F)nc2)c1Cl (centres unmarked)	%	90
CCOC(=O)COc1nn(-c2cccnc2C)c(-c2cncc(F)c2)c1Br	%	90
COC(=O)COc1nn(-c2ncccc2C(F)(F)F)c(-c2cncc(F)c2)c1Br	%	80
COC(=O)COc1nn(-c2ncccc2F)c(-c2ccc(F)nc2)c1C1CC1	%	90

Sure, the documented Post-emergence action against VIOTR in % for `CCOC(=O)COc1nn(-c2ccccn2)c(-c2ccnc(F)c2)c1Br` is 100

* * *

test system: Pharbitis purpurea (PHBPU); experiment: Post-emergence herbicidal action against PHBPU; format: in vivo; conditions: dosage 320 g/ha
assay-endpoint: Post-emergence action against PHBPU in % (%)
Numbers only, in %.

compound-structure-string	assayed-target	assay-endpoint	result-unit	value-reported
COC(=O)COc1nn(-c2nc(F)ccc2F)c(-c2cncc(F)c2)c1Cl	Pharbitis purpurea (PHBPU)	Post-emergence action against PHBPU in %	%	80
CCOC(=O)COc1nn(-c2ncccc2F)c(-c2ccnc(F)c2)c1Br	Pharbitis purpurea (PHBPU)	Post-emergence action against PHBPU in %	%	90
COCCOC(=O)COc1nn(-c2cccc(C)n2)c(-c2ccc(F)nc2)c1Br	Pharbitis purpurea (PHBPU)	Post-emergence action against PHBPU in %	%	80

// next item, Post-emergence action against PHBPU in % requested
Field Post-emergence action against PHBPU in % (entry `COC(=O)CCOC(=O)[C@@H](C)Oc1nn(-c2ccccn2)c(-c2ccc(Cl)nc2)c1Br` ) reads 80
